Quick list: cell count per entry.
test: GPR55 agonists via beta-arrestin recruitment, primary screen, imaging, U2OS cells, beta-arrestin-GFP redistribution (AID 1961); settings: measured here: cytotoxicity, cells analyzed, at 10 µM;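 note: U2OS osteosarcoma cells stably expressing GPR55 and beta-arrestin-GFP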
Screen size: about 290,000 compounds; about 140 (0.048%) were called active. The entries come from a sample that favours actives as a whole.
parameter.measured: cell count (cells)

• COc1ccc(NC(=O)NC2CCCCCCC2)c(OC)c1 = 240
• CN(C)c1ccc(/C=C/C(=O)c2ccccc2O)cc1 = 238
• O=C(NCCN1CCOCC1)c1cc(-c2ccco2)on1 = 315
• COc1ccccc1C(=O)NC(=S)/C=C1/N(C)c2ccccc2C1(C)C = 278
• COc1cccc(-n2c(SCC(=O)Nc3cc(C)on3)nc3ccccc3c2=O)c1 = 336
• CN(C)c1ccc(C(=O)/C=C/c2ccccc2)cc1 = 254
• Cc1ccc(SC[C@H](CC(C)C)N2CCN(CCc3ccccc3)CCC2=O)cc1 = 305
• O=C(CNC(=O)c1ccc(N2C(=O)c3ccccc3C2=O)cc1)OCC(=O)c1cccc2ccccc12 = 341
• COC(=O)c1cc(OC)c(OC)cc1NC(=O)CC1CCCCC1 = 320
• CN1/C(=C\C(=S)NC(=O)c2ccccc2Cl)C(C)(C)c2ccccc21 = 357
• CSc1cccc(N/C(=N/S(=O)(=O)c2ccccc2)NN)c1 = 310
• CCOc1ccccc1CNC(=O)CCc1cn(CC)c2ccccc12 = 381
• COc1ccc(CNC(=O)CN(C(=O)c2csnn2)c2ccccc2F)cc1 = 338
• CCCN1CCC(=O)N([C@H](CSc2ccc(C)cc2)CC(C)C)CC1 = 328
